- Test system: 786-0 renal
- experiment_description: NCI-60 one-dose screen, 48 h (100 = growth as untreated, 0 = no growth, -100 = all killed)
- measurement_conditions: 10 µM unless noted
The panel holds about 83,000 compounds, 20% with a hit somewhere; the sample as a whole holds those more often. Calls of active or inactive are those of the source. The calls were made as follows: active = growth percent below 10; inactive = the rest.
Please respond with reported growth for every item in the list.

Enquiry: Dear colleague, I am looking for the recorded growth of the following molecule: CCCCCc1ccc(S(=O)(=O)Nc2cc(-c3csc(NC(=O)CN4CCN(CCO)CC4)n3)ccc2OC)cc1
Return: -51.5% (active)

Enquiry: Another: C=C(C)[C@@H]1CC[C@]2(C(=O)NCCCCCN(CCC#N)CCC#N)CC[C@]3(C)[C@H](CC[C@@H]4[C@@]5(C)CCC(=O)C(C)(C)[C@@H]5CC[C@]43C)[C@@H]12
Return: 92% (inactive)

Enquiry: Also need c1n[nH]cc1-c1nc2ccc3[nH]ncc3c2c2c1CCCC2 , thanks.
Return: 16.9% (inactive)

Enquiry: How about Cc1cc(C)n(C(=O)c2sc(=S)n(-c3ccccc3)c2N=Nc2c(N)n[nH]c2N)n1 ?
Return: 111% (inactive)

Enquiry: Same lookup for O=C(Nc1nc2ccc([N+](=O)[O-])cc2s1)Nc1ccccc1Cl , please.
Return: 48.5% (inactive)

Enquiry: What do we get for NC(N)=Nc1ccc(Oc2cccc(Nc3ccc(Cl)c(C(F)(F)F)c3)c2)cn1 ?
Return: -46.3% (active)

Enquiry: Same read-out for O=S(=O)(NCCCNc1nccc(-c2[nH]c(-c3ccccc3)nc2-c2ccc(Cl)c(O)c2)n1)c1ccc(Br)cc1 ?
Return: 53.4% (inactive)

Enquiry: And for Oc1cccc2ccc(-c3nnc(SCc4ccc(O)c5ncccc45)n3-c3ccccc3)nc12 ?
Return: 25.9% (inactive)

Data provenance: PubChem BioAssay (NCI)
